Where do these numbers come from? They come from FireProtDB (doi:10.1006/jmbi.1995.0616).

B1: Subtilisin-chymotrypsin inhibitor-2A, P01053 (parent)
chain: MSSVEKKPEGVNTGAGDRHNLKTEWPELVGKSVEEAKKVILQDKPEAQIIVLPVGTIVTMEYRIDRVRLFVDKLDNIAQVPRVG

Variants of: B1
Conditions: Hordeum vulgare; pH 6.25; 25 °C; GdnHCl; Fluorescence; MES 50 mM; reversible: yes; structure 2CI2; whole UniProt chain shown
Rule: denaturant midpoint (higher = more stable) under 4 M gives 0, otherwise 1.

{"QUERY_SEQUENCE": "MSSVEKKPEGVNTGAGDRHNLKTEWPELVGKGVEEAKKVILQDKPEAQIIVLPVGTIVTMEYRIDRVRLFVDKLDNIAQVPRVG [S32G]", "DISCRETE_LABEL": 0}
{"QUERY_SEQUENCE": "MSSVEKKPEGVNTGAGDRHNLKTEWPELVGKSVEEAKKVILQDKPEAQIIVLPVGAIVTMEYRIDRVRLFVDKLDNIAQVPRVG [T56A]", "DISCRETE_LABEL": 1}
{"QUERY_SEQUENCE": "MSSVEKKPEGVNTGAGDRHNLKTEWPELVGKSVEEAKKVIAQDKPEAQIIVLPVGTIVTMEYRIDRVRLFVDKLDNIAQVPRVG [L41A]", "DISCRETE_LABEL": 0}
{"QUERY_SEQUENCE": "MSSVEKKPEGVNTGAGDRHNLKTEWPELVGKSVEEAGKVILQDKPEAQIIVLPVGTIVTMEYRIDRVRLFVDKLDNIAQVPRVG [K37G]", "DISCRETE_LABEL": 0}
{"QUERY_SEQUENCE": "MSSVEKKPEGVNTGAGDRHNLKTEWPELVGKSVEEAKKVILQDKPEAQIIVLPVGTIVTMEYRIDRVRLFVDKLDNIAQVARVG [P81A]", "DISCRETE_LABEL": 0}
{"QUERY_SEQUENCE": "MSSVEKKPEGVNTGAGDRHNLKTEWPELVGKSVEEAKKVILQDKPEAMIIVLPVGTIVTLEYRIDRVRLFVDKLDNIAQVPRVG [Q48M M60L]", "DISCRETE_LABEL": 1}
{"QUERY_SEQUENCE": "MSSVEKKPEGVNTGAGDRHNLKTEWAELVGKSVEEGKKVILQDKPEAQIIVLPVGTIVTMEYRIDRVRLFVDKLDNIAQVPRVG [P26A A36G]", "DISCRETE_LABEL": 0}
{"QUERY_SEQUENCE": "MSSVEKKPEGVNTGAGDRHNLKTEWPELVGKSVEEAKKVILQDKPEAQIIVAPVGTIVTMEYRIDRVRLLVDKLDNIAQVPRVG [L52A F70L]", "DISCRETE_LABEL": 0}
{"QUERY_SEQUENCE": "MSSVEKKPEGVNTGAGDRHNLKTEWPELVGKSVNEAKKVILQDKPEAQIIVLPVGTIVTMEYRIDRVRLFVDKLDNIAQVPRVG [E34N]", "DISCRETE_LABEL": 0}
